biological target: Aryl hydrocarbon receptor (AhR) ligand-binding domain (Mus musculus, UniProt P30561); test: Induction of mouse AhR LBD transcriptional activity in mouse hepa1 cells transfected with AhR response element co expressed with XRE after 6 hrs by luciferase reporter gene assay relative to control; assay type: cell-based; details: read-out: FC
Sequence (P30561 whole entry, the tested form may be a part): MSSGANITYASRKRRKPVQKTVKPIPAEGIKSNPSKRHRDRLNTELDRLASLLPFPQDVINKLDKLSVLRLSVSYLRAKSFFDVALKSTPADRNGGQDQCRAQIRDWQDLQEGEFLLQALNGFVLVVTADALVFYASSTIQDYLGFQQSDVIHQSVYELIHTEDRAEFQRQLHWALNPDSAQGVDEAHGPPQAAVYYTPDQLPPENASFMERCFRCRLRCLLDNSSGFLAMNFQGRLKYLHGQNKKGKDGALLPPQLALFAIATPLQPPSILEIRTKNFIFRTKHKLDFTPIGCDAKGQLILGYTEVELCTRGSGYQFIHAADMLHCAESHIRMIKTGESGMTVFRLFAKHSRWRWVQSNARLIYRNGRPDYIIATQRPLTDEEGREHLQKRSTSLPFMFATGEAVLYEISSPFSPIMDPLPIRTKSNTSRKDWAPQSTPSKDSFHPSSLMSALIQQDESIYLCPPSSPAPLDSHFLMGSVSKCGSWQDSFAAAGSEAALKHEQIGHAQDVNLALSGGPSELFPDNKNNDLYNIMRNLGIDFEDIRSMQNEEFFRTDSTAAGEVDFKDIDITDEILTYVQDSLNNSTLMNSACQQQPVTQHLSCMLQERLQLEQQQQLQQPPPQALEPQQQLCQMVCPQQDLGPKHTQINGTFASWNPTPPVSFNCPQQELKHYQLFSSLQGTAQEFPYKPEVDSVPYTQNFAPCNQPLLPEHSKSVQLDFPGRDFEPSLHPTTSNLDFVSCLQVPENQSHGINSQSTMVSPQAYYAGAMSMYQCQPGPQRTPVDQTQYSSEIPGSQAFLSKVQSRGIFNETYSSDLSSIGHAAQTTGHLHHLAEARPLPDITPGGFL
Quick rule for you: fold induction at 6 h under 3 gets 1, anything else gets 0.

>>> assigned_category("O=C1CC(c2ccccc2)Oc2cc(O)cc(O)c21 (single isomer, unassigned)")
0
>>> assigned_category("Clc1cc2c(cc1Cl)Oc1cc(Cl)c(Cl)cc1O2")
0
>>> assigned_category("Cc1ccc2oc(-c3ccccc3)c(O)c(=O)c2c1")
1
>>> assigned_category("COc1ccc2c(=O)c(-c3ccccc3)coc2c1")
1
>>> assigned_category("Cc1ccc2oc(-c3ccccc3)cc(=O)c2c1")
0
>>> assigned_category("COc1cc(O)c2c(=O)cc(-c3ccccc3)oc2c1")
0
>>> assigned_category("O=c1cc(-c2ccccc2O)oc2c(O)c(O)ccc12")
1
